meta.source: BigSolDB 2.1

- testContext: in isopropanol, 308.15 K
readoutName: solubility (mole fraction)

INSERT INTO results (compound, readoutname, recordednumber) VALUES
  ('CC(C(=O)O)c1ccc(CC2CCCC2=O)cc1 (stereo unspecified)', 'solubility (mole fraction)', 0.145);

###

- testContext: in isopentyl acetate, 318.15 K
readoutName: solubility (mole fraction)

INSERT INTO measurements (compound, recordednumber) VALUES
  ('CC(C(=O)O)c1ccc(CC2CCCC2=O)cc1 (stereo unspecified)', 0.109);

###

- testContext: in methanol, 308.15 K
readoutName: solubility (mole fraction)

INSERT INTO results (molecule, readoutname, recordednumber) VALUES
  ('CC(C(=O)O)c1ccc(CC2CCCC2=O)cc1 (stereo unspecified)', 'solubility (mole fraction)', 0.216);

###

- testContext: in ethanol, 313.15 K
readoutName: solubility (mole fraction)

INSERT INTO measurements (molecule, readoutname, recordednumber) VALUES
  ('CC(C(=O)O)c1ccc(CC2CCCC2=O)cc1 (stereo unspecified)', 'solubility (mole fraction)', 0.208);

###

- testContext: in acetonitrile, 293.15 K
readoutName: solubility (mole fraction)

INSERT INTO results (molecule, recordednumber) VALUES
  ('CC(C(=O)O)c1ccc(CC2CCCC2=O)cc1 (stereo unspecified)', 0.0364);

###

- testContext: in isobutyl acetate, 323.15 K
readoutName: solubility (mole fraction)

INSERT INTO results (molecule, readoutname, recordednumber) VALUES
  ('CC(C(=O)O)c1ccc(CC2CCCC2=O)cc1 (stereo unspecified)', 'solubility (mole fraction)', 0.144);

###

- testContext: in n-propanol, 293.15 K
readoutName: solubility (mole fraction)

INSERT INTO measurements (molecule, readoutname, recordednumber) VALUES
  ('CC(C(=O)O)c1ccc(CC2CCCC2=O)cc1 (stereo unspecified)', 'solubility (mole fraction)', 0.0792);

###

- testContext: in ethyl orthosilicate, 283.15 K
readoutName: solubility (mole fraction)

INSERT INTO assay_data (compound, recordednumber) VALUES
  ('CC(C(=O)O)c1ccc(CC2CCCC2=O)cc1 (stereo unspecified)', 0.0247);

###

- testContext: in ethyl orthosilicate, 313.15 K
readoutName: solubility (mole fraction)

INSERT INTO measurements (compound, readoutname, recordednumber) VALUES
  ('CC(C(=O)O)c1ccc(CC2CCCC2=O)cc1 (stereo unspecified)', 'solubility (mole fraction)', 0.0565);

###

- testContext: in isopropyl acetate, 303.15 K
readoutName: solubility (mole fraction)

INSERT INTO measurements (compound, recordednumber) VALUES
  ('CC(C(=O)O)c1ccc(CC2CCCC2=O)cc1 (stereo unspecified)', 0.0694);

###

- testContext: in n-propanol, 283.15 K
readoutName: solubility (mole fraction)

INSERT INTO results (compound, readoutname, recordednumber) VALUES
  ('CC(C(=O)O)c1ccc(CC2CCCC2=O)cc1 (stereo unspecified)', 'solubility (mole fraction)', 0.0526);

###

- testContext: in ethyl acetate, 293.15 K
readoutName: solubility (mole fraction)

INSERT INTO results (compound, recordednumber) VALUES
  ('CC(C(=O)O)c1ccc(CC2CCCC2=O)cc1 (stereo unspecified)', 0.0752);

###

- testContext: in 1,4-dioxane, 323.15 K
readoutName: solubility (mole fraction)

INSERT INTO measurements (compound, recordednumber) VALUES
  ('CC(C(=O)O)c1ccc(CC2CCCC2=O)cc1 (stereo unspecified)', 0.378);
